Numbers sourced from the Human Domainome abundance scans (Beltran et al. 2025).

B1: Neutrophil cytosol factor 2, residues 456 to 514; numbered along this chain, P19878 (parent)
chain: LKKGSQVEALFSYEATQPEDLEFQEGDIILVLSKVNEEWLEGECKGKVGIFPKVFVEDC

# Variants of: B1
# assay_procedure: abundance fitness (aPCA) (normalised: wild type 0, dead -1); higher = more abundant; growth selection in yeast, the domain comes from the species named
# condition_details: Homo sapiens
observed_property: abundance fitness

mutation_string: I50F
assay_value: -0.389
//
mutation_string: A15G
assay_value: -0.152
//
mutation_string: F23E
assay_value: -0.023
//
mutation_string: S33D
assay_value: 0.4
//
mutation_string: S33G
assay_value: 0.378
//
mutation_string: K45G
assay_value: -0.61
//
mutation_string: E37A
assay_value: -0.42
//
mutation_string: E14A
assay_value: 0.059
//
mutation_string: I28C
assay_value: -0.546
//
mutation_string: K47V
assay_value: -0.331
//
mutation_string: V35T
assay_value: -0.808
//
mutation_string: E57C
assay_value: -0.15
//
mutation_string: K3T
assay_value: -0.094
//
mutation_string: K45W
assay_value: -0.125
//
mutation_string: A9W
assay_value: -0.432
//
mutation_string: E8S
assay_value: 0.048
//
mutation_string: V35W
assay_value: -0.019
//
mutation_string: E37D
assay_value: 0.069
//
mutation_string: F55N
assay_value: -0.522
//
mutation_string: C44W
assay_value: -0.182
//
mutation_string: T16V
assay_value: -0.36
//
mutation_string: D27E
assay_value: -0.933
//
mutation_string: E19T
assay_value: -0.055
//
mutation_string: K3D
assay_value: -0.366
//
mutation_string: D27T
assay_value: -0.695
//
mutation_string: V56Q
assay_value: -0.581
//
mutation_string: K45F
assay_value: -0.669
//
mutation_string: E43P
assay_value: -0.818
//
mutation_string: E14T
assay_value: 0.319
//
mutation_string: L1N
assay_value: -0.024
//
mutation_string: Y13E
assay_value: -0.499
//
mutation_string: G4I
assay_value: 0.575
//
mutation_string: A9S
assay_value: -0.726
//
mutation_string: Y13I
assay_value: -0.487
//
mutation_string: K53W
assay_value: -0.808
